B1: GALNT9 (parent)
chain: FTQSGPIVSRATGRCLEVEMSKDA

Variants of: B1
Experiment: protein stability index of a GFP-peptide fusion (GPS, HEK-293T) (PSI 1-6); higher = more stable;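 also: lentivirally expressed fusions sorted by FACS into six bins by GFP to DsRed ratio, PSI derived from sequencing read proportions per bin multiplied by bin number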
Details: c terminus: a fixed tail appended
Label met when protein stability index is at or above 2; anything below gets not met.

[[record]]
variant_string = "I7G"
assigned_category = "not met"

[[record]]
variant_string = "R10C"
assigned_category = "met"

[[record]]
variant_string = "T12M"
assigned_category = "not met"

[[record]]
variant_string = "G5R"
assigned_category = "not met"

[[record]]
variant_string = "S9T"
assigned_category = "not met"

[[record]]
variant_string = "G5A"
assigned_category = "not met"

[[record]]
variant_string = "G13P"
assigned_category = "not met"

[[record]]
variant_string = "E19M"
assigned_category = "met"

[[record]]
variant_string = "A24M"
assigned_category = "not met"

[[record]]
variant_string = "V8M"
assigned_category = "met"

[[record]]
variant_string = "V18A"
assigned_category = "not met"

[[record]]
variant_string = "T12D"
assigned_category = "met"

[[record]]
variant_string = "P6E"
assigned_category = "not met"

[[record]]
variant_string = "G13E"
assigned_category = "met"

[[record]]
variant_string = "Q3K"
assigned_category = "met"

[[record]]
variant_string = "P6C"
assigned_category = "not met"

[[record]]
variant_string = "M20D"
assigned_category = "met"

[[record]]
variant_string = "S21D"
assigned_category = "not met"

[[record]]
variant_string = "S9G"
assigned_category = "met"

